protocol_notes: chemical genetic growth profiling, strain panel (AID 1159580);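 further: tested at 20 µM; growth read once vehicle control cultures reached saturation at 30 °C; 1 = growth at the plate median or of vehicle wells; lower values mean less growth of the strain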
condition_label: S. cerevisiae deletion strains, growth OD, locus YLL041C, strain sdh2, hits give low values
Among all 5,500 compounds or so, about 2,000 (36%) were called active. Another 18% or so got no clear call; they are omitted. This is one part of the list.
Entries and their normalized growth

I am curious: what normalized growth value has been reported for CC(C)=CCC/C(C)=C/CO ? 0.98 (inactive)

New cases:
I am curious: what normalized growth value has been reported for C[N+]12CCC(CC1)C(OC(=O)C(O)(c1ccccc1)c1ccccc1)C2 (configuration not stated) ? 1 (inactive)

Another molecule to look at: CC[C@H]1OC(=O)[C@H](C)[C@@H](O[C@H]2C[C@@](C)(OC)[C@@H](O)[C@H](C)O2)[C@H](C)[C@@H](O[C@@H]2O[C@H](C)C[C@H](N(C)C)[C@H]2O)[C@](C)(O)C[C@@H](C)/C(=N/OCOCCOC)[C@H](C)[C@@H](O)[C@]1(C)O 1.01 (inactive)

Another molecule to look at: CC(C)C1CCC(C(=O)N[C@@H](Cc2ccccc2)C(=O)O)CC1 (some centres not stated) 0.961 (inactive)

Another molecule to look at: Cc1cc(O)c2c(c1)C(=O)c1cccc(O)c1C2=O 1.01 (inactive)

Another molecule to look at: NC(Cc1ccc(Cl)cc1)C(=O)O (configuration not stated) 1 (inactive)

Another molecule to look at: COc1cc([C@@H]2c3cc4c(cc3[C@H](O)[C@H]3COC(=O)[C@H]23)OCO4)cc(OC)c1OC 1.01 (inactive)

Another molecule to look at: CN1CCCCC1c1ccc(-c2cccnc2)nc1 (configuration not stated) 0.991 (inactive)

Another molecule to look at: CC(C)N1C(=O)c2ccccc2NS1(=O)=O 0.958 (inactive)

Another molecule to look at: C/C(=C\CO)CC[C@H](C)CCC[C@H](C)CCCC(C)C 1.13 [resistant] (active)

Another molecule to look at: O=C1c2cccc(O)c2C(=O)c2c(O)cccc21 0.953 (inactive)

Another molecule to look at: COc1ccc(-c2c(O)c3c(OC)c4c(cc3oc2=O)OC(C)(C)C=C4)cc1 0.942 (inactive)

Another molecule to look at: COc1cc(OC)c2c(OC)c(-c3ccc4c(c3)OCO4)c(=O)oc2c1 0.987 (inactive)

Another molecule to look at: Cc1cc2nc3c(=O)[nH]c(=O)nc-3n(CC(O)C(O)C(O)CO)c2cc1C (configuration not stated) 1 (inactive)

Another molecule to look at: O=C(O)[C@H]1/C(=C/CO)O[C@@H]2CC(=O)N21 1.02 (inactive)

Another molecule to look at: O=C1C=CC(=O)c2ccccc21 0.0596 (active)

Another molecule to look at: O=C(Nc1ccc([N+](=O)[O-])cc1Cl)c1cc(Cl)ccc1O 0.931 (inactive)

Another molecule to look at: CC(C)c1cc2c(c(O)c1O)[C@@]1(C(=O)O)CCCC(C)(C)C1CC2 (some centres not stated) 0.664 (active)

Another molecule to look at: CC(=CC1CCC(C)C2CCC(C)=C12)C(=O)O (configuration not stated) 0.955 (inactive)

meta.source: PubChem BioAssay AID1159580
